Biological target: recombinant human KRAS^G12D protein (Homo sapiens, UniProt P01116, G12D)
Sequence (P01116 1-188 isoform P01116-2 G12D): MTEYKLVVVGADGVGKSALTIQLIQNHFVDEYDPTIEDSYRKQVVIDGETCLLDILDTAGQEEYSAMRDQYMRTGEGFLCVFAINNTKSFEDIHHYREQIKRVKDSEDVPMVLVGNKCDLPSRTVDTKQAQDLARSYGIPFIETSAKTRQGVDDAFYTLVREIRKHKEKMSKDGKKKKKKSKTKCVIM
Assay: Temperature-dependent Fluorescence (TdF) KRAS G12D protein binding assay
Settings: 6 μM KRAS^G12D protein, 10 μM compound, Sypro Orange; Kd calculated from the fluorescent shift
Assignment: determine reported Kd for the given compounds.

Query string: Recorded Kd for CN(C)C1CN(c2nc(N3CC4CCC(C3)N4)c3cc(Cl)c(-c4cc(O)cc5ccccc45)c(F)c3n2)C1 [Compound 39] , please?
Result string: > 5 µM

Query string: Requested read-out: Kd. Entry: Oc1cc(-c2c(Cl)cc3c(N4CCNCC4)nc(OCC45CCCN4CCC5)nc3c2F)c2ccccc2c1 [Compound 29]
Result string: > 5 µM

Query string: Any idea what Kd was measured for Nc1cccc(F)c1-c1c(Cl)cc2c(N3CC4CCC(C3)N4)nc(OCC34CCCN3CCC4)nc2c1F [Compound 32] ?
Result string: 0.5 to 5 µM

Query string: So what's the measured Kd for this one? CN(C)CC1CN(c2nc(N3CC4CCC(C3)N4)c3cc(Cl)c(-c4cc(O)cc5ccccc45)c(F)c3n2)C1 [Compound 51]
Result string: > 5 µM

====

For each entry below, report its pKd value.
Molecular target: recombinant human KRAS^G12D protein (Homo sapiens, UniProt P01116, G12D)
Test: Temperature-dependent Fluorescence (TdF) KRAS G12D protein binding assay
Settings: 6 μM KRAS^G12D protein, 10 μM compound, Sypro Orange; Kd calculated from the fluorescent shift
pKd: −log10 of the molar value.

Query string: Find the recorded pKd belonging to CN1CCC2CCN(c3nc(N4CC5CCC(C4)N5)c4cc(Cl)c(-c5cc(O)cc6ccccc56)c(F)c4n3)CC21 (stereo not shown) and report it.
Result string: < 5.30

Query string: What pKd value was documented for this molecule, `Fc1c(-c2cccc3cccc(Cl)c23)c(Cl)cc2c(N3CC4CCC(C3)N4)nc(OCC34CCCN3CCC4)nc12` ?
Result string: 5.30 to 6.30

Query string: Recorded pKd for `Oc1cc(-c2c(Cl)cc3c(N4CC5CCC(C4)N5)nc(OCCN4CCCC4)nc3c2F)c2ccccc2c1` , please?
Result string: < 5.30

Query string: Endpoint output: pKd of `CN1CCC[C@H]1COc1nc(N2CC3(CNC3)C2)c2cc(Cl)c(-c3cc(O)cc4cccc(Cl)c34)c(F)c2n1` . Value?
Result string: < 5.30

====

Molecular target: Ba/F3_KRAS^G12D cells (Homo sapiens, UniProt P01116, G12D, cells depend on it)
Sequence (P01116 whole entry G12D): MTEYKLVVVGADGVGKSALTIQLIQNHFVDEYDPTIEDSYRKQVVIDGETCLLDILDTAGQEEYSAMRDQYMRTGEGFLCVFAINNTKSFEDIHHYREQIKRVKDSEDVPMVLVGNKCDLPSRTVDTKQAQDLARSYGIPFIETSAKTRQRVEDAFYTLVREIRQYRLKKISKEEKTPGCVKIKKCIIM
Assay: Ba/F3 KRAS G12D cell proliferation assay (CellTiter-Glo)
Type: cell-based
Conditions: treated for 3 days, cell-titer Glo, cell growth inhibition, read-out: BaF3_KRAS^G12D IC50
assay-endpoint: GI50

Query string: Lab request: please report GI50 under test system Ba/F3_KRAS^G12D cells (Homo sapiens, UniProt P01116, G12D, cells depend on it) for CN1CCC[C@H]1COc1nc(N2CCC3NCC32)c2cc(Cl)c(-c3cc(O)cc4cccc(Cl)c34)c(F)c2n1 (stereo partly drawn)
Result string: 500 to 5000 nM

Query string: Lab note: need GI50 for CCOc1cc2c(N3CC4CCC(C3)N4)nc(OC[C@@]34CCCN3C[C@H](F)C4)nc2c(F)c1-c1cc(O)cc2ccc(F)c(CC)c12 [Compound 159] on Ba/F3_KRAS^G12D cells (Homo sapiens, UniProt P01116, G12D, cells depend on it), anyone have it?
Result string: 500 to 5000 nM

Query string: Item: `CN1CCC[C@H]1COc1nc(N2CC3(CNC3)C2)c2cc(Cl)c(-c3cc(O)cc4cccc(Cl)c34)c(F)c2n1` Test system: Ba/F3_KRAS^G12D cells (Homo sapiens, UniProt P01116, G12D, cells depend on it) Read-out: GI50 Value: ?
Result string: > 5000 nM

Query string: Find the measured GI50: item CCc1c(F)ccc2cc(O)cc(-c3c(C#N)cc4c(N5CC6CCC(C5)N6)nc(OC[C@@]56CCCN5C[C@H](F)C6)nc4c3F)c12 [Compound 150] , target or system Ba/F3_KRAS^G12D cells (Homo sapiens, UniProt P01116, G12D, cells depend on it).
Result string: < 500 nM

Query string: Form field: GI50 recorded for CN1CC(F)(F)CC1COc1nc(N2CC3CCC(C2)N3)c2cc(Cl)c(-c3cc(O)cc4cccc(Cl)c34)c(F)c2n1 (stereo not drawn) with Ba/F3_KRAS^G12D cells (Homo sapiens, UniProt P01116, G12D, cells depend on it) (enter value)
Result string: 500 to 5000 nM

Query string: Item: `C#Cc1c(F)ccc2cc(O)cc(-c3cc(Cl)c4c(N5CC6CCC(C5)N6)nc(OC[C@@]56CCCN5C[C@H](F)C6)nc4c3F)c12` Test system: Ba/F3_KRAS^G12D cells (Homo sapiens, UniProt P01116, G12D, cells depend on it) Read-out: GI50 Value: ?
Result string: < 500 nM
